experimentalProtocol: Example 1: multiple-dose randomized 3-way crossover PK study of two IV tramadol regimens vs 100 mg oral q6h
experimentalSetup: human, plasma, iv, 50 mg, plasma concentration, Mean, 50 mg IV Dose (h 0, 2, 4, then q4h to h 44); Time 20.0 hr
Structures can show the parent of a compound that is named as a salt.
assayMetric: concentration at 20 h (ng/mL)
Express it in ng/mL; write the number only.

Task item: GET /values?readout=concentration at 20 h&item= COc1cccc([C@]2(O)CCCC[C@H]2CN(C)C)c1 (racemic) [Tramadol, hydrochloride]
Reply: 419

---

experimentalProtocol: Example 4: multiple dose steady-state dose proportionality study, tramadol injection 50/100 mg IV and Ultram tablet 50/100 mg oral q6h
Format: in vivo, human
experimentalSetup: human, plasma, iv, 50 mg
Where a name gives a salt, the structure may show the parent alone.
assayMetric: AUC

Task item: Tell me the measured AUC of COc1cccc([C@]2(O)CCCC[C@H]2CN(C)C)c1 (racemic) [Tramadol, hydrochloride] , please.
Reply: 1970 ng·h/mL

Source listed as patent US10537521B2.
